Molecular target: Mu-type opioid receptor (Homo sapiens) + Delta-type opioid receptor (Homo sapiens) (UniProt P35372+P41143)
Sequence (P35372 whole entry, looked up): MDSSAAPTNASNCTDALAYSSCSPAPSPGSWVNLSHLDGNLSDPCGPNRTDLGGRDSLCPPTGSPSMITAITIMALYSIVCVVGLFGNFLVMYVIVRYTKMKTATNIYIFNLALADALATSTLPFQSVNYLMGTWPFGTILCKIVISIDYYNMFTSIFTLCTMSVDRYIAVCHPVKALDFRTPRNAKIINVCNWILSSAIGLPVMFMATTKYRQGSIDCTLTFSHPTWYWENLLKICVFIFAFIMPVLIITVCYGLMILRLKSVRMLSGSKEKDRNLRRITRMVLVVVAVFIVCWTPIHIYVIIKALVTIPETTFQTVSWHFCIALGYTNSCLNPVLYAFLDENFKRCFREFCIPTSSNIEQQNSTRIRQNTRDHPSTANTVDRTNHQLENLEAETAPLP
Sequence (P41143 whole entry, looked up): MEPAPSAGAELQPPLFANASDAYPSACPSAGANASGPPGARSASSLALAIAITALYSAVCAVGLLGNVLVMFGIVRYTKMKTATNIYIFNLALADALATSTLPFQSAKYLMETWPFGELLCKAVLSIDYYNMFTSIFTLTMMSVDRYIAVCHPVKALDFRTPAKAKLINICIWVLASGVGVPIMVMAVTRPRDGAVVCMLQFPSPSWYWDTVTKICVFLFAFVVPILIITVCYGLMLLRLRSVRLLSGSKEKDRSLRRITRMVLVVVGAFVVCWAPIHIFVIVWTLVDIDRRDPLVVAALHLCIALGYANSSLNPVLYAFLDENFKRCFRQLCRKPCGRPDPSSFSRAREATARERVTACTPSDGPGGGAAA
Test: OPRM1-OPRD1 heterodimer agonist potency – cell-based, luminescence, counter-screen for MC4R biased agonist project, dose response (AID 602264)
Settings: cell-based OPRM1-OPRD1 heterodimerization
Calls of active or inactive are those of the source. The rule behind the calls is not given here.
Below, each entry is listed alongside its reported EC50.

Query: What measured EC50 goes with CC(=O)Nc1cc(-c2ccc(N(C)C)cc2)cn2c(-c3ccc(F)c(Cl)c3)cnc12 ?
Reply: > 92.5 µM (inactive)

Query: What measured EC50 goes with CC(C)c1ccc(NS(=O)(=O)c2ccc(-n3cccn3)cc2)cc1 ?
Reply: > 92.5 µM (inactive)

Query: What measured EC50 goes with N#C/C(=C\c1cn(CCOc2ccccc2F)c2ccccc12)C(=O)NCc1cccs1 ?
Reply: > 92.4 µM (inactive)

Query: What measured EC50 goes with CC(=O)Nc1cc(-c2cccc(F)c2)cn2c(-c3ccc(F)c(Cl)c3)cnc12 ?
Reply: > 64.6 µM (inactive)

Query: What measured EC50 goes with O=C(Nc1cc(-c2nc3ccccc3s2)ccc1Cl)c1ccc2c(c1)OCO2 ?
Reply: > 92.4 µM (inactive)

Query: What measured EC50 goes with CCCOc1ccc(C(=O)C(CCC(CNCC)C(=O)c2ccc(OCCC)cc2)CNCC)cc1 (stereo not given) ?
Reply: > 92.5 µM (inactive)

Query: What measured EC50 goes with Clc1ccccc1/C=N/NC1=Nc2cccc3cccc1c23 ?
Reply: > 64.6 µM (inactive)

Query: What measured EC50 goes with COc1ccc2sc(-c3ccc(S(C)(=O)=O)cc3)c(C#Cc3cncn3C)c2c1 ?
Reply: > 92.5 µM (inactive)

Query: What measured EC50 goes with Cc1cc(C)c2sc(N(CCCN(C)C)C(=O)c3ccc(Br)s3)nc2c1 ?
Reply: > 92.5 µM (inactive)
